All values here come from patent US11034725B2.

Reported IC50 values for a set of compounds
biological target: PCSK9Δhelix (Homo sapiens, UniProt Q8NBP7); construct: Human PCSK9 construct M1-Q692 with an engineered TEV site (residue deletion Y166, R167); made in house; host or cells: CHO; experiment: PCSK9Δhelix/Ab20 TR-FRET binding assay; details: TR-FRET; Table 8E, additional compounds; read-out: PCSK9Δhelix/Ab20 IC50
Sequence (Q8NBP7 with tags, fused parts or gaps limits assumed): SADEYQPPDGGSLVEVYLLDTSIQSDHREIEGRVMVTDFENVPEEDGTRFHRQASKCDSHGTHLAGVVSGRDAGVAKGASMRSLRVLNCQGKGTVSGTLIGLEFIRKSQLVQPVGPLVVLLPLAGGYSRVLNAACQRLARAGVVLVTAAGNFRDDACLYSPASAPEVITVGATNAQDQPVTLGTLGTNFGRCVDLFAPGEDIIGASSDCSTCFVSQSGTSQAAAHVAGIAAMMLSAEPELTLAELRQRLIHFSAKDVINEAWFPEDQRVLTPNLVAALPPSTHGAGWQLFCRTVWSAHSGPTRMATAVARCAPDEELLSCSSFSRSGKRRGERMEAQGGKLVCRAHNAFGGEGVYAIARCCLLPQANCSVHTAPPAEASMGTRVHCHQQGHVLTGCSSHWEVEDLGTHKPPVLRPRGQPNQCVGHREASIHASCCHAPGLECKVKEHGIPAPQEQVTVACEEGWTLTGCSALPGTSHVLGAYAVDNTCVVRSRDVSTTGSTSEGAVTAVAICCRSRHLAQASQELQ
Sequence (Q8NBP7 31-152 partner limits assumed): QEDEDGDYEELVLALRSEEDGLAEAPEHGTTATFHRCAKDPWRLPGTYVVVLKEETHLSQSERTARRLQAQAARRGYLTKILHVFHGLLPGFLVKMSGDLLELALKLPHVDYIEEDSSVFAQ
Numbered stars: 1 amine (or outer) side, 2 acyl side, 3 side chain; on linkers, the order of the positions; unused ones are H or OH. Square brackets hold non-standard residues; d marks the D form. Peptide text beside a SMILES is read from it. * marks the point of attachment. X5 = Cn1cc([C@@H]2C[C@H]2C(=O)*)cn1; X17 = O=C([C@H]1C[C@@H]1c1cccnc1)*; X14 = O=C(CC1CCN([*:1])CC1)[*:2]; hArg = N=C(N)NCCCC[C@H](N)C(=O)O; X11 = O=C(CCCOc1ccc(Br)cc1)*; X7 = CCc1ccc(OCCCC(=O)*)cc1; Pentanoyl = CCCCC(=O)*; Ms = CS(=O)(=O)*
Return type: number; implicit unit µM.

Some entries whose results are on file:
compound	IC50, µM
CC[C@H](C)[C@H](NC(=O)[C@H](CCCNC(=N)N)NC(=O)[C@@H](NC(=O)[C@H](CC(C)C)NC(=O)[C@H](CC(N)=O)NC(=O)[C@H](Cc1c[nH]c2ccccc12)NC(=O)CC1CCN(S(C)(=O)=O)CC1)C(C)C)C(=O)NCC(=O)N[C@@H](CC(C)C)C(=O)N[C@@H](CC(C)C)C(=O)N[C@@H](CCCNC(=N)N)C(N)=O [Compound 133] (Ms-[X14]WNLVRIGLLR-NH2)	17
CC[C@H](C)[C@H](NC(=O)[C@H](CCCCNC(=N)N)NC(=O)[C@@H](NC(=O)[C@H](CC(C)C)NC(=O)[C@H](CC(N)=O)NC(=O)[C@H](Cc1c[nH]c2ccccc12)NC(=O)[C@H]1C[C@@H]1c1cccnc1)C(C)C)C(=O)NCC(=O)N[C@@H](CC(C)C)C(=O)N[C@@H](CC(C)C)C(=O)N[C@@H](CCCNC(=N)N)C(N)=O [Compound 225] (X17-WNLV[hArg]IGLLR-NH2)	1.8
CC[C@H](C)[C@H](NC(=O)[C@H](CCCCNC(=N)N)NC(=O)[C@@H](NC(=O)[C@H](CC(C)C)NC(=O)[C@H](CC(N)=O)NC(=O)[C@H](Cc1c[nH]c2ccccc12)NC(=O)[C@@H](N)Cc1ccc(O)cc1)C(C)C)C(=O)NCC(=O)N[C@@H](CC(C)C)C(=O)N[C@@H](CC(C)C)C(=O)N[C@@H](CCCNC(=N)N)C(N)=O [Compound 226] (H-YWNLV[hArg]IGLLR-NH2)	0.35
CC[C@H](C)[C@H](NC(=O)[C@H](CCCNC(=N)N)NC(=O)[C@@H](NC(=O)[C@H](CC(C)C)NC(=O)[C@H](CC(N)=O)NC(=O)[C@H](Cc1c[nH]c2ccccc12)NC(=O)[C@@H]1C[C@H]1c1cnn(C)c1)C(C)C)C(=O)NCC(=O)N[C@@H](CC(C)C)C(=O)N[C@@H](CC(C)C)C(=O)N[C@@H](CCCNC(=N)N)C(N)=O [Compound 127] (X5-WNLVRIGLLR-NH2)	29
CCc1ccc(OCCCC(=O)N[C@@H](Cc2c[nH]c3ccccc23)C(=O)N[C@@H](CC(N)=O)C(=O)N[C@@H](CC(C)C)C(=O)N[C@H](C(=O)N[C@@H](CCCCNC(=N)N)C(=O)N[C@H](C(=O)NCC(=O)N[C@@H](CC(C)C)C(=O)N[C@@H](CC(C)C)C(=O)N[C@@H](CCCNC(=N)N)C(N)=O)[C@@H](C)CC)C(C)C)cc1 [Compound 210] (X7-WNLV[hArg]IGLLR-NH2)	0.84
CC[C@H](C)[C@H](NC(=O)[C@H](CCCCNC(=N)N)NC(=O)[C@@H](NC(=O)[C@H](CC(C)C)NC(=O)[C@H](CC(N)=O)NC(=O)[C@@H](N)Cc1c[nH]c2ccccc12)C(C)C)C(=O)NCC(=O)N[C@@H](CC(C)C)C(=O)N[C@@H](CC(C)C)C(=O)N[C@@H](CCC(N)=O)C(N)=O [Compound 237, WNLV(homoR)IGLLQ-NH2] (H-WNLV[hArg]IGLLQ-NH2)	0.33
CC[C@H](C)[C@H](NC(=O)[C@H](CCCCNC(=N)N)NC(=O)[C@@H](NC(=O)[C@H](CC(C)C)NC(=O)[C@H](CC(N)=O)NC(=O)[C@H](Cc1c[nH]c2ccccc12)NC(=O)CNC(=O)[C@@H]1CCCN1C(=O)[C@H](Cc1ccccc1)NC(=O)[C@H](C)NC(=O)[C@H](Cc1ccccc1)NC(=O)[C@H](CO)NC(C)=O)C(C)C)C(=O)NCC(=O)N[C@@H](CC(C)C)C(=O)N[C@@H](CC(C)C)C(=O)N[C@@H](CCCNC(=N)N)C(N)=O [Compound 228] (Ac-SFAFPGWNLV[hArg]IGLLR-NH2)	13
CC[C@H](C)[C@H](NC(=O)[C@H](CCCNC(=N)N)NC(=O)[C@@H](NC(=O)[C@H](CC(C)C)NC(=O)[C@H](CC(N)=O)NC(=O)[C@H](Cc1c[nH]c2ccccc12)NC(=O)CCCOc1ccc(Br)cc1)C(C)C)C(=O)NCC(=O)N[C@@H](CC(C)C)C(=O)N[C@H](C(=O)N[C@@H](CCCNC(=N)N)C(N)=O)[C@@H](C)O [Compound 182] (X11-WNLVRIGLTR-NH2)	4

CCCCC(=O)N[C@@H](Cc1c[nH]c2ccccc12)C(=O)N[C@@H](CC(N)=O)C(=O)N[C@@H](CC(C)C)C(=O)N[C@H](C(=O)N[C@@H](CCCNC(=N)N)C(=O)N[C@H](C(=O)NCC(=O)N[C@@H](CC(C)C)C(=O)N[C@@H](CC(=O)O)C(=O)N[C@@H](CCCNC(=N)N)C(N)=O)[C@@H](C)CC)C(C)C [Compound 178] (Pentanoyl-WNLVRIGLDR-NH2) yielded IC50 of 18

CCCCC(=O)N[C@@H](Cc1c[nH]c2ccccc12)C(=O)N[C@@H](CC(N)=O)C(=O)N[C@@H](CC(C)C)C(=O)N[C@H](C(=O)N[C@@H](CCCNC(=N)N)C(=O)N[C@H](C(=O)NCC(=O)N[C@@H](CC(C)C)C(=O)N[C@@H](CO)C(=O)N[C@@H](CCCNC(=N)N)C(N)=O)[C@@H](C)CC)C(C)C [Compound 181] (Pentanoyl-WNLVRIGLSR-NH2) yielded IC50 of 8.9
